Listing of entries alongside the reported pIC50.
# tested_on: His-tagged human recombinant kinase full-length Akt1 (Homo sapiens (Human), UniProt P31749)
# Sequence (P31749 whole entry): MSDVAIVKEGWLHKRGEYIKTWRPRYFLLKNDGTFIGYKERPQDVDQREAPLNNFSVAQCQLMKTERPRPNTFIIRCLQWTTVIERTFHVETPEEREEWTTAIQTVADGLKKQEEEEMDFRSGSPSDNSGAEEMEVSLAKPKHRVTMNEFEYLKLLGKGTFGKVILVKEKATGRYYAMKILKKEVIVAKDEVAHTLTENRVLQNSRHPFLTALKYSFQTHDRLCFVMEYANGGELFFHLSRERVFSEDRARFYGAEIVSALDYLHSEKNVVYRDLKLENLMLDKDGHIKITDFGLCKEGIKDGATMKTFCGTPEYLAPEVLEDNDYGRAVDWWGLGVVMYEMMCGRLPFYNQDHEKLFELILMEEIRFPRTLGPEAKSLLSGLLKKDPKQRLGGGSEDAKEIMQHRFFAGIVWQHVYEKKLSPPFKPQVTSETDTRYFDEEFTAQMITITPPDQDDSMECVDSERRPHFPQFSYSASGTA
# test: Akt1 kinase assay (Akt1 TR-FRET assay, Biological Assay 1.0)
# experimental_context: 10 μM ATP, 1 μM biotinylated peptide substrate, 60 min at 22° C.
Reminder that pIC50 is minus the log10 of a molar concentration.

Some entries whose results are on file:
Cc1cccc(-c2nc(C3CCN(Cc4ccc(-c5nc6nccn6cc5-c5ccccc5F)cc4)CC3)n[nH]2)n1
8.52
CC(C)Nc1c(-c2ccccc2)c(-c2ccc(CN3CC(c4n[nH]c(-c5ccccn5)n4)C3)cc2)nc2nc(-c3ccccn3)nn12
7.62
COC(=O)c1cnn2cc(-c3ccc(F)cc3F)c(-c3ccc(CN4CC(c5n[nH]c(-c6ccccn6)n5)C4)cc3)nc12
8.15
Cc1nc2nc(-c3ccc(CN4CCC(c5n[nH]c(-c6ccccn6)n5)CC4)cc3)c(-c3cccc(F)c3)cn2n1
7.55
c1ccc(-c2cn3ccnc3nc2-c2ccc(CN3CCC(c4cnc5ccccc5n4)CC3)cc2)cc1 [Example 36.0]
7.15
FC(F)(F)c1ccc2nc(C3CCN(Cc4ccc(-c5nc6ccnn6cc5-c5ccccc5)cc4)CC3)[nH]c2c1
6.47
Cc1cccc(-c2nc(C3CN(Cc4ccc(-c5nc6nc(C)cn6c(NC(C)C)c5-c5ccccc5)cc4)C3)n[nH]2)n1
7.48
Cc1nc2nc(-c3ccc(CN4CCC(c5nc6ccc(F)cc6[nH]5)CC4)cc3)c(-c3ccccc3)cn2n1
6.95
OCc1cn2cc(-c3ccccc3)c(-c3ccc(CN4CC(c5n[nH]c(-c6ccccn6)n5)C4)cc3)nc2n1
7.14

Now turn to the next molecule.
# input What does the record list as pIC50 for `CNc1nc2nc(-c3ccc(CN4CC(c5n[nH]c(-c6ccccn6)n5)C4)cc3)c(-c3ccccc3)cn2n1` ?
# output 7.20
